Taken from paper PMC9433906.

# Test system: K. pneumoniae (ATCC 13883)
# Type: cell-based, Klebsiella pneumoniae
# CONDITION: K. pneumoniae (ATCC13883); 5×10^5 CFU.ml^−1, Mueller-Hinton Broth, 37°C, 24 h, OD 595 nm, biological triplicates
Where a SMILES comes first, the peptide text is derived from it.
VALUE TYPE: Minimum inhibitory concentration (MIC) (µM)
# value in µM; strip the unit string

Input: Quick check: Minimum inhibitory concentration (MIC) on K. pneumoniae (ATCC 13883), item CC(C)C[C@H](NC(=O)[C@H](C)NC(=O)CNC(=O)[C@H](Cc1ccccc1)NC(=O)CN)C(=O)N[C@@H](Cc1ccccc1)C(=O)N[C@@H](CCCCN)C(=O)N[C@@H](CCCNC(=N)N)C(=O)N[C@@H](CC(C)C)C(=O)N[C@@H](C)C(=O)N[C@@H](CCCCN)C(=O)N[C@@H](CCCCN)C(=O)N[C@H](C(=O)N[C@@H](C)C(=O)N[C@@H](CCCCN)C(=O)N[C@H](C(=O)N[C@H](C(=O)N[C@@H](C)C(N)=O)C(C)C)[C@@H](C)O)C(C)C [Peptide R3b] (H-GFGALFKRLAKKVAKTVA-NH2) ?
Output: 67.21

====

# Test system: K. pneumoniae (ATCC 13883)
# Assay type: cell-based, Klebsiella pneumoniae
# CONDITION: K. pneumoniae (ATCC13883); 5×10^5 CFU.ml^−1, Mueller-Hinton Broth, 37°C, 24 h, OD 595 nm, biological triplicates
# Description: Susceptibility tests were performed using clinical isolates of Klebsiella pneumoniae carbapenemase (KPC 1410503) and methicillin-resistant S. aureus (MRSA 3730592). Tests were also performed with ATCC (American Type Culture Collection) isolates of K. pneumoniae (ATCC 13883) and S. aureus (ATCC 25923). […]
Where a SMILES comes first, the peptide text is derived from it.
Examples of molecules with documented Minimum inhibitory concentration (MIC) follow.

[
  {
    "MOLECULE": "CC(C)C[C@H](NC(=O)[C@H](C)NC(=O)CNC(=O)[C@H](Cc1ccccc1)NC(=O)CN)C(=O)N[C@@H](Cc1ccccc1)C(=O)N[C@@H](CCCCN)C(=O)N[C@@H](Cc1ccccc1)C(=O)N[C@@H](CC(C)C)C(=O)N[C@@H](C)C(=O)N[C@@H](CCCCN)C(=O)N[C@@H](CCCCN)C(=O)N[C@H](C(=O)N[C@@H](C)C(=O)N[C@@H](CCCCN)C(=O)N[C@H](C(=O)N[C@H](C(=O)N[C@@H](C)C(=O)N[C@@H](CCCCN)C(N)=O)C(C)C)[C@@H](C)O)C(C)C [Peptide R1a] (H-GFGALFKFLAKKVAKTVAK-NH2)",
    "ASSAY SYSTEM": "K. pneumoniae (ATCC 13883)",
    "EXPERIMENTAL RESULT": "31.63 µM"
  },
  {
    "MOLECULE": "CC(C)C[C@H](NC(=O)[C@H](C)NC(=O)CNC(=O)[C@H](Cc1ccccc1)NC(=O)CN)C(=O)N[C@@H](Cc1ccccc1)C(=O)N[C@@H](CCCCN)C(=O)N[C@@H](CCCNC(=N)N)C(=O)N[C@@H](CC(C)C)C(=O)N[C@@H](C)C(=O)N[C@@H](CCCCN)C(=O)N[C@@H](C)C(=O)N[C@H](C(=O)N[C@@H](C)C(=O)N[C@@H](CCCCN)C(=O)N[C@@H](C)C(=O)N[C@H](C(=O)N[C@@H](C)C(N)=O)C(C)C)C(C)C [Peptide R8b] (H-GFGALFKRLAKAVAKAVA-NH2)",
    "ASSAY SYSTEM": "K. pneumoniae (ATCC 13883)",
    "EXPERIMENTAL RESULT": "17.60 µM"
  },
  {
    "MOLECULE": "CC(C)C[C@H](NC(=O)[C@H](CCCNC(=N)N)NC(=O)[C@H](CCCCN)NC(=O)[C@H](Cc1ccccc1)NC(=O)[C@H](CC(C)C)NC(=O)[C@H](CCCCN)NC(=O)CNC(=O)[C@H](Cc1ccccc1)NC(=O)CN)C(=O)N[C@@H](C)C(=O)N[C@@H](CCCCN)C(=O)N[C@@H](C)C(=O)N[C@H](C(=O)N[C@@H](C)C(=O)N[C@@H](CCCCN)C(=O)N[C@@H](C)C(=O)N[C@H](C(=O)N[C@@H](C)C(N)=O)C(C)C)C(C)C [Peptide R10b] (H-GFGKLFKRLAKAVAKAVA-NH2)",
    "ASSAY SYSTEM": "K. pneumoniae (ATCC 13883)",
    "EXPERIMENTAL RESULT": "17.07 µM"
  },
  {
    "MOLECULE": "CC(C)C[C@H](NC(=O)[C@H](C)NC(=O)CNC(=O)[C@H](Cc1ccccc1)NC(=O)CN)C(=O)N[C@@H](Cc1ccccc1)C(=O)N[C@@H](CCCCN)C(=O)N[C@@H](Cc1ccccc1)C(=O)N[C@@H](CC(C)C)C(=O)N[C@@H](C)C(=O)N[C@@H](CCCCN)C(=O)N[C@@H](CCCCN)C(=O)N[C@H](C(=O)N[C@@H](C)C(=O)N[C@@H](CCCCN)C(=O)N[C@@H](C)C(=O)N[C@H](C(=O)N[C@@H](C)C(N)=O)C(C)C)C(C)C [Peptide R2b] (H-GFGALFKFLAKKVAKAVA-NH2)",
    "ASSAY SYSTEM": "K. pneumoniae (ATCC 13883)",
    "EXPERIMENTAL RESULT": "17.15 µM"
  }
]

Kindly review the next molecule as well.
Input: Entry under review: CC(C)C[C@H](NC(=O)[C@H](C)NC(=O)CNC(=O)[C@H](Cc1ccccc1)NC(=O)CN)C(=O)N[C@@H](Cc1ccccc1)C(=O)N[C@@H](CCCCN)C(=O)N[C@@H](Cc1ccccc1)C(=O)N[C@@H](CC(C)C)C(=O)N[C@@H](C)C(=O)N[C@@H](CCCCN)C(=O)N[C@@H](CCCCN)C(=O)N[C@H](C(=O)N[C@@H](C)C(=O)N[C@@H](CCCCN)C(=O)N[C@H](C(=O)N[C@H](C(=O)N[C@@H](C)C(N)=O)C(C)C)[C@@H](C)O)C(C)C [Peptide R1b] (H-GFGALFKFLAKKVAKTVA-NH2) . Reported Minimum inhibitory concentration (MIC)?
Output: 33.77 µM
